tested on: OVCAR-4 ovarian; test: NCI tumour cell line growth inhibition, 48 h; in the data active means GI50 below about 0.43 µM; inactive means the rest
Outcome codes: active, inactive

Molecule | Classification
CCC[CH2][Sn]1([CH2]CCC)[O]N=Cc2ccccc2[O]1 | inactive
CCN1CCN(c2nc(NNC(=O)c3cccc(OC)c3)nc(N3CCN(C(c4ccccc4)c4ccccc4)CC3)n2)CC1 | inactive
COC(=O)C1=C(C)NC(C)=C(C(=O)OC)C1c1ccccc1[N+](=O)[O-] | inactive
C[C@@H]1CC[C@H]2C(CN(C)CC3=C(C(F)(F)F)O[C@@H]4O[C@@]5(C)CC[C@H]6[C@H](C)CC[C@@H]3[C@@]46OO5)=C(C(F)(F)F)O[C@@H]3O[C@@]4(C)CC[C@@H]1[C@]32OO4 | inactive
Cc1cccc(Cc2cnc(NC(=O)/C=C/c3ccco3)s2)c1 | inactive
CN(C)CC1CCCCCCCCCCC1=O (centres undefined) | inactive
CN1CCN(Cc2ccc(NC(=O)c3cncc(C#Cc4cncc5[nH]ncc45)c3)cc2C(F)(F)F)CC1 | active
COc1ccc(C(=O)C(CN(C)C)c2ccccc2)cc1 (centres undefined) | inactive
Cc1cncc2cccc(S(=O)(=O)N3CCCNC[C@@H]3C)c12 | inactive

----------
test system: MDA-N; assay: NCI tumour cell line growth inhibition, 48 h
As shown below, each of these compounds has a reported TGI value.

Compound | TGI
N#Cc1c(NC(=S)Nc2ccccc2)sc2c1CCCC2 | > 100 µM
CN1C(=O)[C@](C)(Cc2ccc(F)cc2)N(C(=O)OC(C)(C)C)[C@@H]1C(C)(C)C | > 100 µM
N#Cc1nc(C(=O)c2ccccc2)oc1N | > 100 µM
Nc1nc(Cl)cc(NCC2CC(O)(CO)C2)n1 (centres undefined) | > 100 µM
Oc1cccc(-c2cn3cc(Cl)ccc3n2)c1 | > 100 µM
CCCCCC(=O)OCC1(CO)C/C(=C/CC(C(C)C)C(C)C)C(=O)O1 (centres undefined) | > 75 µM
CC(=O)c1c2c(cc3c1CCC3)CCC2 | > 100 µM
C(=N\Nc1nnc(-c2nnc(N/N=C/c3ccccc3)o2)o1)/c1ccccc1 | > 10 µM
CC(C)(C)C1=CC(O)(c2c3ccccc3c(C3(O)C=C(C(C)(C)C)C(=O)C(C(C)(C)C)=C3)c3ccccc23)C=C(C(C)(C)C)C1=O | > 100 µM
CC1CC/C(=C\c2ccc(F)cc2)C2=C1C(c1ccc(F)cc1)NC(=S)N2 (centres undefined) | > 100 µM
CN1CCN(C2CC(=O)c3c(Cl)sc(Cl)c32)CC1 (centres undefined) | 35 µM
CC(=O)c1nc(C#N)c(N)o1 | > 100 µM
O=C1CCc2c(sc3ncnc(Nc4cccc(Br)c4)c23)C1 | 7.69 µM
COc1cc(OC)cc(-c2nc3ccccc3c(=O)[nH]2)c1 | > 100 µM
BrCC[N+]12CCCN1CCC2 | 30.2 µM
CN(C)CC1CCCCCCCCCCC1=O (centres undefined) | > 100 µM
CC1=NNC(N)=N/C1=C\C(Sc1ccc(Cl)cc1)c1ccc(Cl)cc1Cl (centres undefined) | > 71.5 µM
CCOC(=O)c1sc2[n+](c1C)C(=O)/C(=C/c1ccccc1Cl)S2 | 0.565 µM
Cc1cc(=O)oc2c(CN(CCCl)CCCl)c(O)ccc12 | > 100 µM
CC1CN=C(N(C(=O)Nc2ccccc2)C2CCCCC2)S1 (centres undefined) | 30.1 µM
O=c1[nH]c(=O)c2c([nH]1)[nH]c1ccccc12 | > 100 µM
COC1OC(=O)C(OC)C(OC)C1OC (centres undefined) | > 100 µM
CC[C@@]1(O)C(=O)N(CCN(C)C)Cc2c1cc1n(c2=O)Cc2cc3ccccc3nc2-1 | > 100 µM
NC(=O)c1nnc2c(F)cccc2c1N | > 100 µM
